- Assay Procedure: CCTE_Deisenroth_AIME_384WELL_CTox_Active: Cytotoxicity Assessment (CTOX) in CCTE's 384-well Estrogen Receptor Transactivation Assay with AIME metabolic competence (metabolism positive), Deisenroth Lab (AID 2284037);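 further: chemicals first conditioned 2 h by alginate-bound induced rat liver S9 before cells; activity means signal loss indicating cell death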
Records with an inconclusive call do not appear. The source made the active and inactive calls. How the source made its calls: active means hit-call score of the fitted dose curve at least 0.9, where 1 is the maximum; inconclusive means response in the unintended direction; inactive means score below 0.9.
A correct response names exactly one class from active, inactive

The following compounds have reported results that may help.
Compound | Qualitative Label
CC(C)(C)c1cc(O)ccc1O | active
CCOP(=S)(OCC)SCSP(=S)(OCC)OCC | inactive
Cc1ccc(N)cc1Cl | inactive
CC(=O)c1cc(C(C)(C)C)cc2c1CCC2(C)C | inactive
CCCCCCCCSC(=O)Oc1cc(Cl)nnc1-c1ccccc1 | inactive
OCC(O)CCl (stereo not drawn) | inactive
CCC(C)(C)c1ccc(O)c(C(C)(C)CC)c1 | active
O=C1C(Cl)=C(Cl)C(=O)c2ccccc21 | active
C=C(C)C#N | inactive
CC(=O)[O][Hg][c]1ccccc1 | active

Ask | What did this assay record as the result for `COP(=O)(OC)O/C(=C\Cl)c1cc(Cl)c(Cl)cc1Cl` ?
Reply | active

Ask | // next record `C[C@@H]1C[C@@H]([C@H](O)CC2CC(=O)NC(=O)C2)C(=O)[C@@H](C)C1`
Reply | active

Ask | // next record `O=C(NCO)NCO`
Reply | inactive
